The origin of these recorded values is the supplement of paper PMC9112550.

The following sequences are shown together with reported shrunken log2 fold change values.
Test system: Escherichia coli TOP10
protocol: shrunken log2 fold change of peptide-encoding DNA abundance (4.5 h post-induction vs induction); higher = less antimicrobial activity (less host growth inhibition)
experimental_context: time post-induction: 4.5 h; library: site-saturation at positions 5, 18, 19, 20
// print number alone

Answered cases to consult:
RRIRDRPPRLPRPRPRPFFVPRP | 0.0823
RRIRFRPPRLPRPRPRPTMWPRP | 0.0084
RRIRKRPPRLPRPRPRPVNGPRP | 0.0996
RRIRMRPPRLPRPRPRPVVIPRP | -0.174
RRIRSRPPRLPRPRPRPYLNPRP | -0.564

Give recorded shrunken log2 fold change with Escherichia coli TOP10 for the following sequence: "RRIRWRPPRLPRPRPRPEPEPRP"
0.838

Then what about the sequence "RRIRDRPPRLPRPRPRPVMAPRP" ?
0.774

Then what about the sequence "RRIRNRPPRLPRPRPRPGLMPRP" ?
0.235

###

System: Escherichia coli TOP10
protocol: shrunken log2 fold change of peptide-encoding DNA abundance (4.5 h post-induction vs induction); higher = less antimicrobial activity (less host growth inhibition)
experimental_context: time post-induction: 4.5 h; library: site-saturation at positions 5, 18, 19, 20
experimental_readout: shrunken log2 fold change

RRIRMRPPRLPRPRPRPKQDPRP | 1.14
RRIRPRPPRLPRPRPRPDSRPRP | 0.0317
RRIRNRPPRLPRPRPRPHDIPRP | -0.0337

What value of measured shrunken log2 fold change is listed for "RRIRERPPRLPRPRPRPWRCPRP" ?
-0.0332

Then what about the sequence "RRIRDRPPRLPRPRPRPNGMPRP" ?
-0.0609

###

Test system: Escherichia coli TOP10
protocol: shrunken log2 fold change of peptide-encoding DNA abundance (4.5 h post-induction vs induction); higher = less antimicrobial activity (less host growth inhibition)
experimental_context: time post-induction: 4.5 h; library: site-saturation at positions 5, 18, 19, 20
Field: class. Source value: shrunken log2 fold change. Ranges: low bin (below -0.05), mid bin (-0.05 to below 0.08), high bin (0.08 or more)

Look over these answered cases.
RRIRFRPPRLPRPRPRPGCPPRP | mid bin
RRIRSRPPRLPRPRPRPYDCPRP | mid bin
RRIRWRPPRLPRPRPRPNCLPRP | high bin
RRIRWRPPRLPRPRPRPVFSPRP | low bin
RRIRNRPPRLPRPRPRPNKDPRP | mid bin
RRIRDRPPRLPRPRPRPGIPPRP | mid bin
RRIRRRPPRLPRPRPRPIRMPRP | high bin
RRIRARPPRLPRPRPRPRFEPRP | high bin
RRIRERPPRLPRPRPRPACLPRP | low bin
RRIRRRPPRLPRPRPRPEPMPRP | high bin

API: the following record is the query input.
Returns: class label. Input: "RRIRARPPRLPRPRPRPANKPRP"
mid bin

###

Tested on: Escherichia coli TOP10;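 also: peptides expressed intracellularly from a pBAD plasmid library in pooled LB shake-flask culture, induced with 0.3% L-arabinose, DNA abundance read by NGS, three biological replicates, DESeq2 with apeglm shrinkage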
protocol: shrunken log2 fold change of peptide-encoding DNA abundance (4.5 h post-induction vs induction); higher = less antimicrobial activity (less host growth inhibition)
experimental_context: time post-induction: 4.5 h; library: site-saturation at positions 5, 18, 19, 20
Threshold check on shrunken log2 fold change: at or above -0.07 gives Fulfilled, strictly below gives Not fulfilled.

RRIRHRPPRLPRPRPRPCDDPRP | Fulfilled

Could you verify whether the entry "RRIRVRPPRLPRPRPRPHPSPRP" shows shrunken log2 fold change of no less than -0.07?
Fulfilled

Then what about the sequence "RRIRERPPRLPRPRPRPVATPRP" ?
Fulfilled

Then what about the sequence "RRIRYRPPRLPRPRPRPNYHPRP" ?
Not fulfilled
